- TARGET_OR_SYSTEM: myosin ATPase, Porcine Ventricle myofibrils (Sus scrofa, UniProt P79293)
- Construct: Myofibrils from porcine cardiac muscle was isolated from the left ventricle of Yucatan minipigs; tissue Exemplar Genetics; host or cells: left ventricle of Yucatan minipigs, myofibrils
- Sequence (P79293 whole entry): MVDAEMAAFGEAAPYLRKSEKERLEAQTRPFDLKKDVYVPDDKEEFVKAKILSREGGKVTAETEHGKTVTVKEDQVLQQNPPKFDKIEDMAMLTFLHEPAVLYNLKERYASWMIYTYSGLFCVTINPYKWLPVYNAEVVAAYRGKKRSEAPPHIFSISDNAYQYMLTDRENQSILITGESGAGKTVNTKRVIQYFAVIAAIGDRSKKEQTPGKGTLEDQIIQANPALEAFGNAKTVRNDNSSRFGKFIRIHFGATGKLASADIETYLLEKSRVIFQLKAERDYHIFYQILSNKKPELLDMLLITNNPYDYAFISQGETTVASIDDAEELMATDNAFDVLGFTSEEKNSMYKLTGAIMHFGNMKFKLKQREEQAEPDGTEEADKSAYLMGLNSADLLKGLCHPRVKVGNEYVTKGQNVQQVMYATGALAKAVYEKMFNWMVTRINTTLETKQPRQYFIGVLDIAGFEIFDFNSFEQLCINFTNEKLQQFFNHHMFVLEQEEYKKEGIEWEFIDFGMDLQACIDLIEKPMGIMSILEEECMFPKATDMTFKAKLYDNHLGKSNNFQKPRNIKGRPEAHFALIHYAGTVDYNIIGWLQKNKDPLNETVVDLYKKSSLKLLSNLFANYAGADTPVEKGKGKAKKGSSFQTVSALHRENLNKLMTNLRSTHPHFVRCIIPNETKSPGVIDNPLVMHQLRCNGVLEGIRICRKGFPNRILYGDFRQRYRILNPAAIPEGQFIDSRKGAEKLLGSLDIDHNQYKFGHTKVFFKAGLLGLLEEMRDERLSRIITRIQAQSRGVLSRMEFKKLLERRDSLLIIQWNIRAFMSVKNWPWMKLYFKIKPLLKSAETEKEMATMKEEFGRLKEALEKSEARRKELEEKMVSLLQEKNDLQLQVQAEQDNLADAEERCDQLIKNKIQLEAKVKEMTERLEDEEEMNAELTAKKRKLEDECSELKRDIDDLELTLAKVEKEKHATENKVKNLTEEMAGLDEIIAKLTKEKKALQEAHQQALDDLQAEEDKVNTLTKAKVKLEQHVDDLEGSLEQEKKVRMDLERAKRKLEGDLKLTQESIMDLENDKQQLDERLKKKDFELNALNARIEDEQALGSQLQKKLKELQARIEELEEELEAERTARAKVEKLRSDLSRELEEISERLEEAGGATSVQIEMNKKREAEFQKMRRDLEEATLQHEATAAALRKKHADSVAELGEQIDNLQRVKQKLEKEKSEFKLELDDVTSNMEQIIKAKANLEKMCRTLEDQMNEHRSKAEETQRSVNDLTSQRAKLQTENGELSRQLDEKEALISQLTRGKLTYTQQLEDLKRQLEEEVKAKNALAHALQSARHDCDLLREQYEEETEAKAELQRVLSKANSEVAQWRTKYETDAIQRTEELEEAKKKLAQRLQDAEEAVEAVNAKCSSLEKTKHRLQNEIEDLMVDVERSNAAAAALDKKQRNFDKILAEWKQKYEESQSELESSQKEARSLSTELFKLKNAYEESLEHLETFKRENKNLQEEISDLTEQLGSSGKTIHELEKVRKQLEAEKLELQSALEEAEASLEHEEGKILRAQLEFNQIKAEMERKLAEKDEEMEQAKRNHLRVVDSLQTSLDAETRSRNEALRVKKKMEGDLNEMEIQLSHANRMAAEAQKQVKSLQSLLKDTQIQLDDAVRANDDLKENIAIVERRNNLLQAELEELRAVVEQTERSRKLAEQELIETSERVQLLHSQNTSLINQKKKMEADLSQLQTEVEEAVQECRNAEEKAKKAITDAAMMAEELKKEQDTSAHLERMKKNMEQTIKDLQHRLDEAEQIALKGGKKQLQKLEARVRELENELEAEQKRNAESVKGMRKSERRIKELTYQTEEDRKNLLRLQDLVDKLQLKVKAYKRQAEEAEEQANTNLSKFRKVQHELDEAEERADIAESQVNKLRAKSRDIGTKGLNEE
- EXPERIMENT_SUMMARY: Myofibril ATPase assay, porcine ventricle myofibrils
- Type: biochemical, porcine (Yucatan minipigs)
- APPLIED_CONDITIONS: concentration required to reduce myosin ATP-ase activity by 25%; Porcine Ventricle Prep pCa 25 GEOM_MEAN
PROPERTY_MEASURED: Porcine Ventricle EC25 (Y75 value) (µM)

Consider the following illustrative entries.
C[C@H](NC(=O)Cn1c(=O)[nH]c2cccc(Cl)c2c1=O)c1ccc(F)cc1F : 0.256
C[C@H](NC(=O)[C@H](C)n1c(=O)[nH]c2ccc(F)cc2c1=O)c1ccc(F)cc1F : 6.567
COc1nccc2[nH]c(=O)n(CC(=O)N[C@@H](C)c3ccc(F)cc3F)c(=O)c12 : 100

[1] CC(C)C[C@@H](C(=O)N[C@@H](C)c1ncc(F)cc1F)n1c(=O)[nH]c2ccccc2c1=O (single isomer, unassigned)
[2] C[C@H](NC(=O)Cn1c(=O)[nH]c2ccccc2c1=O)c1ccc(Cl)cc1 (single isomer, unassigned)
Q: For this pair, 1 and 2 , which shows a numerically higher Porcine Ventricle EC25 (Y75 value)? Your answer should be the label attached to the chosen record.
Ans: 1

This collection of values is drawn from patent US12559464B2.
